- measurementNotes: Antiproliferative activity against human QSG7701 cells incubated for 24 hrs by alamar blue assay
- Assay type: functional, cell-based
- particulars: QSG7701, 24 h
metricName: pIC50
Expect pIC50 as a plain number equal to -log10 of the molar concentration.

Enquiry: Supply measured pIC50 of COC(=O)c1cc2c(c(OC)c1-c1ccc(N(C)C(=O)CNC(=O)OC(C)(C)C)cc1)OCO2 in your reply.
Return: 4.20

Enquiry: State, in one line, measured pIC50 of COC(=O)c1cc2c(c(OC)c1-c1ccc(N(C)C(=O)[C@H](C)NC(=O)OC(C)(C)C)cc1)OCO2
Return: 4.23

Enquiry: State its pIC50 for this compound: COC(=O)c1cc2c(c(OC)c1-c1ccc(N(C)C(=O)[C@H](C)N)cc1)OCO2
Return: 4.13

Enquiry: Supply measured pIC50 of COc1c2c(cc(C(=O)Nc3ccccc3I)c1-c1ccc(N(C)C)cc1)OCO2 in your reply.
Return: 4.24

Enquiry: Give the value of pIC50 reported for the following: COC(=O)c1cc2c(c(OC)c1-c1ccc(N(C)S(=O)(=O)c3ccccc3)cc1)OCO2
Return: 4.21

Enquiry: Answer with the recorded pIC50 of COC(=O)c1cc2c(c(OC)c1-c1ccc(N(C)C)cc1)OCO2 only.
Return: 4.16

Enquiry: Dear colleague, please send me the reported pIC50 for COc1cccc(NC(=O)c2cc3c(c(OC)c2-c2ccc(N(C)C)cc2)OCO3)c1 when you can.
Return: 4.19

Enquiry: Return pIC50 for the following compound: COC(=O)c1cc2c(c(OC)c1-c1ccc(N(C)S(=O)(=O)c3ccc(F)cc3)cc1)OCO2
Return: 4.17

Enquiry: Provide only the value of recorded pIC50 for CNc1ccc(-c2c(C(=O)OC)cc3c(c2OC)OCO3)cc1
Return: 4.17

====

- Tested on: Huh-7
- measurementNotes: Antiproliferative activity against human Huh-7 cells incubated for 24 hrs by alamar blue assay
- particulars: Huh-7, 24 h
metricName: pIC50
In textbook form, pIC50 equals minus log to base ten of the concentration in mol/L.

Enquiry: State its pIC50: COc1cc2c(c(O)c1OC)-c1c(cc3c(c1OC)OCO3)C[C@H](C)[C@H](C)C2
Return: 4.49

====

- Test system: HepG2
- measurementNotes: Antiproliferative activity against human HepG2 cells incubated for 24 hrs by alamar blue assay
- particulars: HepG2, 24 h
metricName: pIC50
FYI, pIC50 means -log10 of a concentration in mol per litre.

Enquiry: Check the records and state pIC50 for COc1cc2c(c(O)c1OC)-c1c(cc3c(c1OC)OCO3)C[C@H](C)[C@H](C)C2
Return: 4.56

====

- measurementNotes: Antiproliferative activity against human QSG7701 cells incubated for 24 hrs by alamar blue assay
- Format: functional, cell-based
- particulars: QSG7701, 24 h
metricName: IC50 (µM)
Write it as a number; the unit µM goes unstated.

| molecule | metricName | valueMeasured |
| --- | --- | --- |
| CNc1ccc(-c2c(C(=O)OC)cc3c(c2OC)OCO3)cc1Cl | IC50 | 50.3 |
| COC(=O)c1cc2c(c(OC)c1-c1ccc(N(C)S(=O)(=O)c3ccc(Br)cc3)cc1)OCO2 | IC50 | 62.4 |
| COC(=O)c1cc2c(c(OC)c1-c1ccc(N(C)S(C)(=O)=O)cc1)OCO2 | IC50 | 75.9 |
| COc1cc2c(c(O)c1OC)-c1c(cc3c(c1OC)OCO3)C[C@H](C)[C@H](C)C2 | IC50 | 53 |
| COc1c2c(cc(C(=O)Nc3ccccc3)c1-c1ccc(N(C)C)cc1)OCO2 | IC50 | 58.5 |

Enquiry: Item COc1c2c(cc(C(=O)NCc3ccccc3)c1-c1ccc(N(C)C)cc1)OCO2 : provide IC50
Return: 56.4

Enquiry: // Input: COC(=O)c1cc2c(c(OC)c1-c1ccc(N(C)C(=O)c3ccccc3)cc1)OCO2 . Output its IC50 only.
Return: 48.4

Enquiry: Output IC50 of CCn1cc(C(=O)O)c(=O)c2cc(F)c(N3CCNCC3)nc21 [ENOXACIN]
Return: 72.4

Enquiry: Supply IC50 value. Item: COC(=O)c1cc2c(c(OC)c1-c1ccc(N(C)S(=O)(=O)c3ccc([N+](=O)[O-])cc3)cc1)OCO2
Return: 69.3
